- System: CEM cells HIV-1 protection, formazan growth assay
- assay-text: NCI AIDS Antiviral Assay
- condition-parameters: measured here: growth of uninfected CEM cells
Threshold check on IC50: strictly below 40 µM is true (1); on or above 40 µM is false (0).

>  <molecule>
CN(C)c1ccc(/C=C/C(=O)c2ccc(O)cc2)cc1

>  <label>
true (1)

$$$$
>  <molecule>
COc1cc2c(cc1OC)C(C(CBr)CBr)N(C1CCCC1)CC2 (stereo unspecified)

>  <label>
false (0)

$$$$
>  <molecule>
CCc1cc(CCC(=O)Nc2c(C)cccc2C)[nH]n1

>  <label>
false (0)

$$$$
>  <molecule>
N#CC1=C(N)N(c2ccccc2)C(=S)N2CCCCCCCC12 (stereo unspecified)

>  <label>
false (0)

$$$$
>  <molecule>
N#C/C(=C\c1ccc([N+](=O)[O-])cc1)C(=O)c1ccccc1

>  <label>
true (1)

$$$$
>  <molecule>
Nc1nc(N)c(N=O)c(=O)[nH]1

>  <label>
false (0)

$$$$
>  <molecule>
C=C(C)[C@@H]1CC[C@]2(CNC(=O)CC3(CC(=O)O)CCCC3)CC[C@]3(C)[C@H](CC[C@@H]4[C@@]5(C)CC[C@H](NC(=O)CC6(CC(=O)O)CCCC6)C(C)(C)[C@@H]5CC[C@]43C)[C@@H]12

>  <label>
true (1)

$$$$
>  <molecule>
CCOC(=O)C(=O)Nc1c(C)cccc1C(C)C

>  <label>
false (0)

$$$$
>  <molecule>
CC1=CC(=O)N(n2c(-c3ccccc3)n[nH]c2=O)C1=O

>  <label>
false (0)

$$$$
>  <molecule>
CCCCCCCSCC(O)COC(c1ccccc1)(c1ccccc1)c1ccccc1 (stereo unspecified)

>  <label>
true (1)

$$$$

Request: Regarding CCCCCCCCCCCCCCCCCCNC(=S)/N=C\C(C(=O)Nc1ccccc1C)=C(/C)O , kindly confirm whether its IC50 is beneath 40 µM.
Result: false (0)

Request: Regarding O=C(O)C1C(C(=O)O)C2C=CC1C21CCCC1 (stereo unspecified) , kindly confirm whether its IC50 is beneath 40 µM.
Result: false (0)

====

- Tested on: CEM cells HIV-1 protection, formazan growth assay
- assay-text: NCI AIDS Antiviral Assay
reported-metric: EC50

Study these solved cases before continuing.
>  <compound>
COC(=O)C(/C(=N\NC(N)=S)C(=O)Nc1ccccc1[N+](=O)[O-])c1cnc2ccccc2n1 (stereo not drawn)

>  <EC50>
> 145 µM

$$$$
>  <compound>
COC(=O)[C@@H](Cc1ccccc1)NNC(=O)OC(C)(C)C

>  <EC50>
> 851 µM

$$$$
>  <compound>
Cc1ccc(NC(=O)/C(=N/NC(=O)C[N+](C)(C)C)c2nc3ccccc3[nH]c2=O)cc1

>  <EC50>
> 186 µM

$$$$

Record O=[N+]([O-])c1ccc(Cc2ccc([N+](=O)[O-])cc2)cc1 , field EC50: > 28.2 µM

Record COC(OC)/C(C)=N/NC1=Nc2ccc(Cl)cc2C(c2ccccc2Cl)=NC1 , field EC50: > 12.3 µM

Record CC(=O)Nc1ccc(/C=C2\SC(=S)N(/C=C(\C(C)=O)C(N)=O)C2=O)cc1 , field EC50: > 200 µM

Record O=c1cc(NNc2ccccc2)[nH]c(=O)[nH]1 , field EC50: > 200 µM

Record O=C(CCCn1ccnc1[N+](=O)[O-])NCCn1ccnc1[N+](=O)[O-] , field EC50: > 200 µM

Record Cn1c2c(c3ccccc31)CCN1C[C@@H]3CCCC[C@H]3C[C@@H]21 , field EC50: > 100 µM

Record C/C=C/CC1(CC)Oc2cccnc2-n2cccc2C1=O (stereo not drawn) , field EC50: > 200 µM

Record CCOC(=O)c1cc2c(cn1)[nH]c1cccc(N)c12 , field EC50: > 263 µM

Record Cc1ccc(S(=O)(=O)N2CCN3CCN(CCN(C)CCN4CCN(CC4)CCN(S(=O)(=O)c4ccc(C)cc4)CCN(S(=O)(=O)c4ccc(C)cc4)CCN(S(=O)(=O)c4ccc(C)cc4)CCN(S(=O)(=O)c4ccc(C)cc4)CCN4CCN(CCN(C)CCN5CCN(CC5)CCN(S(=O)(=O)c5ccc(C)cc5)CCN(S(=O)(=O)c5ccc(C)cc5)CCN(S(=O)(=O)c5ccc(C)cc5)CC2)CC4)CC3)cc1 , field EC50: > 5.01 µM

Record COC(=O)C1=COC2OC3C(C(C)O)C(=O)OC34C=CC1C24 (stereo not drawn) , field EC50: > 589 µM

Record Cn1c(=O)c(-c2ccccc2)c(N=[N+]=[N-])c2ccccc21 , field EC50: > 200 µM

Record CCOC(=O)NC(Nc1cccc(F)c1)(C(F)(F)F)C(F)(F)F , field EC50: > 200 µM

Record Cc1ccc(NC(=O)c2cc(S(=O)(=O)Nc3nc4ncccc4[nH]3)c(SSc3cc(Cl)c(C(=O)Nc4ccc(C)cc4)cc3S(=O)(=O)Nc3nc4ncccc4[nH]3)cc2Cl)cc1 , field EC50: > 200 µM

Record O=c1[nH]nc(-c2ccccc2)n1Nc1ccccc1 , field EC50: > 200 µM

Record CC1=CC[C@H](C[C@H](C#CCCCC2OCCO2)O[Si](C(C)C)(C(C)C)C(C)C)C(=O)CC1 , field EC50: > 200 µM

====

- Tested on: CEM cells HIV-1 protection, formazan growth assay
- assay-text: NCI AIDS Antiviral Assay
- condition-parameters: measured here: growth of uninfected CEM cells
reported-metric: IC50 (µM)
Write down the numeric answer in µM and omit the unit.

>  <compound>
CC1(CCC2C=CCC2)CCCNC1=S (stereo not given)

>  <measurement-target>
CEM cells HIV-1 protection, formazan growth assay

>  <IC50 / µM>
89.1

$$$$

For the next question, use this compound.
Record O=C(CN1CCC(O)(c2ccc(F)cc2)CC1)N1CCN(C/C=C/c2ccccc2)CC1 , field IC50: 28.8

====

The entries below are paired with their reported pEC50.
- Tested on: CEM cells HIV-1 protection, formazan growth assay
- assay-text: NCI AIDS Antiviral Assay
- Experimental: The ability of compounds to protect human CEM cells from HIV-1 infection is measured as a screen for new compounds capable of inhibiting the HIV virus. Five concentrations of drug were tested on uninfected and infected cells and cell growth was measured using a soluble formazan assay. […] Compounds that provided at least 50% protection were retested. Compounds that provided at least 50% protection on retest were listed as moderately active. […]
pEC50: −log10 of the molar value. Where a SMILES comes first, the peptide text is derived from it. [ ]: non-standard residue; d: D form. The star is where a group is joined. ξ: configuration not given here. Boc = CC(C)(C)OC(=O)*; ξV = CC(C)C(N)C(=O)O; OBn = c1ccc(CO*)cc1

Study these solved cases before continuing.
>  <molecule>
CCc1ccc2nccc(NCCCN(C)C)c2c1[N+](=O)[O-]

>  <measurement-target>
CEM cells HIV-1 protection, formazan growth assay

>  <reported>
< 3.70

$$$$
>  <molecule>
O=C1NNC=Nc2ccc(cc2)S(=O)(=O)c2ccc(cc2)N=CNNC1=O

>  <measurement-target>
CEM cells HIV-1 protection, formazan growth assay

>  <reported>
< 3.65

$$$$
>  <molecule>
c1ccc2c(c1)Sc1ccccc1N2CCCN1c2ccccc2Sc2ccccc21

>  <measurement-target>
CEM cells HIV-1 protection, formazan growth assay

>  <reported>
< 4.30

$$$$
>  <molecule>
CC1=Nc2cc(C(=O)c3ccccc3)ccc2N=C(c2c(O)c3c(ccc4ccccc43)oc2=O)C1

>  <measurement-target>
CEM cells HIV-1 protection, formazan growth assay

>  <reported>
< 4.70

$$$$
>  <molecule>
CC(=O)OC1SCC2OC(=O)OC21 (stereo unspecified)

>  <measurement-target>
CEM cells HIV-1 protection, formazan growth assay

>  <reported>
< 2.91

$$$$

Record COc1cc(C)cc(C(=O)OCc2ccccc2)c1C1=C(Cl)C(=O)C(Cl)=CC1=O , field pEC50: < 4.28

Record C1CN(CCSSCCN2CCOCC2)CCO1 , field pEC50: < 3.70

Record CC(C)C(NC(=O)CNC(=O)OC(C)(C)C)C(=O)NCC(=O)OCc1ccccc1 (stereo not drawn) (Boc-Gly-[ξV]-Gly-OBn) , field pEC50: < 3.70

Record O=C1c2ccccc2N2OC3(N4CCOCC4)CCCC3C12c1ccccc1 (stereo unspecified) , field pEC50: < 5.27

Record CC[C@@]1(OC(=O)CCC(=O)O)C(=O)OCc2c1cc1n(c2=O)Cc2cc3ccccc3nc2-1 , field pEC50: < 5.00

Record COP(=O)(OC)/C(=C/c1cnc[nH]1)NC=O , field pEC50: < 3.70

====

- Test system: CEM cells HIV-1 protection, formazan growth assay
- assay-text: NCI AIDS Antiviral Assay
- condition-parameters: measured here: growth of uninfected CEM cells
The entries below are paired with their reported pIC50.
Scale: negative log10 of molar concentration, which is what pIC50 denotes.

Lab note: molecule Nc1ccc(S(=O)(=O)Nc2nc3ccccc3nc2N2CCCCCC2)cc1 tested on CEM cells HIV-1 protection, formazan growth assay; recorded pIC50 was 4.48
